Assay: probe aLefty1 binding on compound microarray – biochemical, small-molecule microarray, 635/667 nm fluorescence, primary screen (AID 1153);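 further: score merges spot fluorescence with signal-to-noise ratio from the scanned slide images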
Conditions: higher = more signal
Assign classes using reported composite z-score values and the ranges zone 1 = under -0.06, zone 2 = from -0.06 up to 0.2, zone 3 = 0.2 and over, please.

MOLECULE	GROUP
CCCC[C@@H]1C[C@H]1[C@@H](NC(=O)c1cccnc1)c1ccc(Cl)cc1	zone 1

// next entry
Just checking, what class would you give "C=CCNC(=O)[C@@H]1[C@H]2C(=O)O[C@H](c3ccccc3)[C@H](c3ccccc3)N2[C@H](c2ccc(OCCO)cc2)[C@@]12C(=O)N(C(=O)OCCOC)c1ccc(C#CCC(C(=O)OC)C(=O)OC)cc12" here?
zone 3
